Item-by-item account of recombinant UMI read abundance (log10)
# ASSAY_DETAILS: recombinant UMI read abundance after kanamycin selection (control-corrected) (log10(CPM+1)); higher = more efficient recombination; extreme values may be limits of the assay; sequences stand for … in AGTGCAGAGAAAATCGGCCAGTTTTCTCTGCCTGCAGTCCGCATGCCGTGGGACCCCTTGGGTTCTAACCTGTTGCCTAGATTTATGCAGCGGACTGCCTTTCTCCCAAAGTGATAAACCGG…AGGTTGGTTTCACT; site = the 11-nt donor
ENDPOINT_LABEL: recombinant UMI read abundance (log10)

[[record]]
sequence_entry = "TACTTGTCATGGACCGGTTTTCCCGGTAATCCGTATTTGCT (site TACTTGTCTAG)"
endpoint_label = "recombinant UMI read abundance (log10)"
test_value = 1.51

[[record]]
sequence_entry = "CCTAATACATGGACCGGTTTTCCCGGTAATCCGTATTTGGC (site CCTAATTCTGC)"
endpoint_label = "recombinant UMI read abundance (log10)"
test_value = 0

[[record]]
sequence_entry = "CACTAGCCATGGACCGGTTTTCCCGGTAATCCGTATTTGCC (site CCCTAGCCTGG)"
endpoint_label = "recombinant UMI read abundance (log10)"
test_value = 0

[[record]]
sequence_entry = "GTCGAATCATGGACCGGTTTTCCCGGTAATCCGTATTTGGG (site GTCGAATCTCC)"
endpoint_label = "recombinant UMI read abundance (log10)"
test_value = 0.914

[[record]]
sequence_entry = "AGGCTGGCATGGACCGGTTTTCCCGGTAATCCGTATTTGTC (site AGGCTGGCTGA)"
endpoint_label = "recombinant UMI read abundance (log10)"
test_value = 0

[[record]]
sequence_entry = "CGGGAAACATGGACCGGTTTTCCCGGTAATCCGTATTTGAT (site CGGGAAACTAT)"
endpoint_label = "recombinant UMI read abundance (log10)"
test_value = 2.27

[[record]]
sequence_entry = "ATTGCGGCATGGACCGGTTTTCCCGGTAATCCGTATTTGGG (site ATTGCGGCTCC)"
endpoint_label = "recombinant UMI read abundance (log10)"
test_value = 0.0219

[[record]]
sequence_entry = "CCGTTAACATGGACCGGTTTTCCCGGTAATCCGTATTTGCT (site CCGTTAACTAG)"
endpoint_label = "recombinant UMI read abundance (log10)"
test_value = 2.18


* * *

We begin with a simple list: items and their reported recombinant UMI read abundance (log10).
# ASSAY_DETAILS: recombinant UMI read abundance after kanamycin selection (control-corrected) (log10(CPM+1)); higher = more efficient recombination; extreme values may be limits of the assay; sequences stand for … in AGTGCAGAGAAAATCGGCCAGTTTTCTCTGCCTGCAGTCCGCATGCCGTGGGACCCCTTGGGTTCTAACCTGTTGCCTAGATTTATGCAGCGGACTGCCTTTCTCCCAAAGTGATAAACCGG…AGGTTGGTTTCACT; site = the 11-nt donor
ENDPOINT_LABEL: recombinant UMI read abundance (log10)

[[record]]
sequence_entry = "GTGTAGGCATGGACCGGTTTTCCCGGTAATCCGTATTTGTG (site GTGCAGGCTCA)"
endpoint_label = "recombinant UMI read abundance (log10)"
test_value = 1.36

[[record]]
sequence_entry = "CTGCTACCATGGACCGGTTTTCCCGGTAATCCGTATTTGCA (site CTGCTACCTCG)"
endpoint_label = "recombinant UMI read abundance (log10)"
test_value = 0.00238

[[record]]
sequence_entry = "AACGTATCATGGACCGGTTTTCCCGGTAATCCGTATTTGCA (site ACAGTATCTTG)"
endpoint_label = "recombinant UMI read abundance (log10)"
test_value = 1.07

[[record]]
sequence_entry = "GTATGCACATGGACCGGTTTTCCCGGTAATCCGTATTTGTT (site GTATGCACTTA)"
endpoint_label = "recombinant UMI read abundance (log10)"
test_value = 0.606


* * *

# ASSAY_DETAILS: recombinant barcode read abundance after kanamycin selection (control-corrected) (log10(CPM+1)); higher = more efficient recombination; sequences stand for … in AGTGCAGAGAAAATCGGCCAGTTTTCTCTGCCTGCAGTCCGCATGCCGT…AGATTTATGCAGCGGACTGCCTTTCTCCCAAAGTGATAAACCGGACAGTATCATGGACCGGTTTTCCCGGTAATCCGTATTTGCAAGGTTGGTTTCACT; site = the 11-nt target
Some sequences, each annotated with its measured recombinant barcode read abundance (log10).
ENDPOINT_LABEL: recombinant barcode read abundance (log10)

[[record]]
sequence_entry = "GGACCATCTTGGGTTCTAACCTGTTGCCT (site GGACCATCTAG)"
test_value = 0.915

[[record]]
sequence_entry = "GGCATCCCTTGGGTTCTAACCTGTTGCCT (site GGCCTCCCTAG)"
test_value = 0.258

[[record]]
sequence_entry = "GAGAGAGCTTGGGTTCTAACCTGTTGCAT (site GAGGGAGCTAT)"
test_value = 0.0621


* * *

Listed sequences paired with reported recombinant barcode read abundance (log10)
# ASSAY_DETAILS: recombinant barcode read abundance after kanamycin selection (control-corrected) (log10(CPM+1)); higher = more efficient recombination; sequences stand for … in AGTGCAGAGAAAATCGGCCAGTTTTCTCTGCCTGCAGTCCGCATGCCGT…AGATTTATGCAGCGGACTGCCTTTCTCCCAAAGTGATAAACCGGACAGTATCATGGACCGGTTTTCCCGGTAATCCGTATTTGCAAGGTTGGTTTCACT; site = the 11-nt target
ENDPOINT_LABEL: recombinant barcode read abundance (log10)

[[record]]
sequence_entry = "CTACGTTCTTGGGTTCTAACCTGTTGCAC (site CTACGCTCTGT)"
test_value = 0

[[record]]
sequence_entry = "TTGGTAGCTTGGGTTCTAACCTGTTGCCT (site TTGGGAGCTAG)"
test_value = 0.127

[[record]]
sequence_entry = "ACTAGTCCTTGGGTTCTAACCTGTTGCCT (site ACTAGTCCTAT)"
test_value = 0.0393

[[record]]
sequence_entry = "TAAGCCTCTTGGGTTCTAACCTGTTGCTG (site TAAGCCTCTCA)"
test_value = 2.54

[[record]]
sequence_entry = "ACCCAATCTTGGGTTCTAACCTGTTGCAC (site ACCCAATCTGT)"
test_value = 1.94

[[record]]
sequence_entry = "GAAAGGGCTTGGGTTCTAACCTGTTGCCT (site GAAATGGCTAG)"
test_value = 0.0705

[[record]]
sequence_entry = "CGGTCATCTTGGGTTCTAACCTGTTGCCT (site CGCTCATCTAG)"
test_value = 0.171

[[record]]
sequence_entry = "GCTAGCCCTTGGGTTCTAACCTGTTGCGG (site GCTAGCCCTCC)"
test_value = 1.83

[[record]]
sequence_entry = "GTGGGCGCTTGGGTTCTAACCTGTTGCCT (site GTCGGCGCTAG)"
test_value = 0.165

[[record]]
sequence_entry = "CCTCGTCCTTGGGTTCTAACCTGTTGCCC (site TAGGACTCTAT)"
test_value = 0.00798

[[record]]
sequence_entry = "TAATCGTCTTGGGTTCTAACCTGTTGCCT (site TAATCGTCTAG)"
test_value = 1.84

[[record]]
sequence_entry = "GTGACCGCTTGGGTTCTAACCTGTTGCCT (site GTAACCGCTAG)"
test_value = 2

[[record]]
sequence_entry = "ATCGGAGCTTGGGTTCTAACCTGTTGCGG (site ATCGGAGCTCG)"
test_value = 0.424


* * *

# ASSAY_DETAILS: recombinant UMI read abundance after kanamycin selection (control-corrected) (log10(CPM+1)); higher = more efficient recombination; extreme values may be limits of the assay; sequences stand for … in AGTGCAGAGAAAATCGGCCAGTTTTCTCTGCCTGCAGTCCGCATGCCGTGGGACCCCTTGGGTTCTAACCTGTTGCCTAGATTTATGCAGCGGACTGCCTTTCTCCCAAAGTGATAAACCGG…AGGTTGGTTTCACT; site = the 11-nt donor
Assign class by recombinant UMI read abundance (log10): not lower than 0.008 means satisfied; lower than 0.008 means not satisfied.

[[record]]
sequence_entry = "TTCGCGCCATGGACCGGTTTTCCCGGTAATCCGTATTTGTA (site TTCGCGCCTTA)"
assigned_category = "not satisfied"

[[record]]
sequence_entry = "TAGTGAGCATGGACCGGTTTTCCCGGTAATCCGTATTTGGG (site TAATGAGCTCC)"
assigned_category = "not satisfied"

[[record]]
sequence_entry = "GGAGTGGCATGGACCGGTTTTCCCGGTAATCCGTATTTGCT (site GGAGTGGCTAC)"
assigned_category = "satisfied"

[[record]]
sequence_entry = "TGTAAGACATGGACCGGTTTTCCCGGTAATCCGTATTTGGC (site TGTAAGACTGC)"
assigned_category = "not satisfied"

[[record]]
sequence_entry = "GGATCATCATGGACCGGTTTTCCCGGTAATCCGTATTTGAT (site CGATCATCTAG)"
assigned_category = "not satisfied"

[[record]]
sequence_entry = "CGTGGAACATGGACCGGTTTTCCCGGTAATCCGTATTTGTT (site CGTGGAACTAA)"
assigned_category = "satisfied"

[[record]]
sequence_entry = "TTAGGTGCATGGACCGGTTTTCCCGGTAATCCGTATTTGTG (site TTAGTTGCTCA)"
assigned_category = "satisfied"

[[record]]
sequence_entry = "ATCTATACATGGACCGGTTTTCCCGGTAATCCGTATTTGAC (site ATCTAGACTGT)"
assigned_category = "not satisfied"

[[record]]
sequence_entry = "TCAGAGGCATGGACCGGTTTTCCCGGTAATCCGTATTTGCG (site TCAGAGTCTCG)"
assigned_category = "satisfied"

[[record]]
sequence_entry = "CTGACGACATGGACCGGTTTTCCCGGTAATCCGTATTTGTT (site CTGACGACTAA)"
assigned_category = "satisfied"

[[record]]
sequence_entry = "CGCTTCTCATGGACCGGTTTTCCCGGTAATCCGTATTTGGG (site CGCTTCTCTCC)"
assigned_category = "not satisfied"

[[record]]
sequence_entry = "CCATTATCATGGACCGGTTTTCCCGGTAATCCGTATTTGCA (site ACAGTATCTTG)"
assigned_category = "not satisfied"

[[record]]
sequence_entry = "TCCCAATCATGGACCGGTTTTCCCGGTAATCCGTATTTGTT (site TCCCAATCTAA)"
assigned_category = "not satisfied"

[[record]]
sequence_entry = "CGCTAGCCATGGACCGGTTTTCCCGGTAATCCGTATTTGCC (site CTCTAGCCTGG)"
assigned_category = "satisfied"

[[record]]
sequence_entry = "TAATACTCATGGACCGGTTTTCCCGGTAATCCGTATTTGCA (site TTATACTCTTG)"
assigned_category = "satisfied"

[[record]]
sequence_entry = "CTAGTATCATGGACCGGTTTTCCCGGTAATCCGTATTTGCA (site CTAGTATCTTG)"
assigned_category = "satisfied"

[[record]]
sequence_entry = "GCTTGCCCATGGACCGGTTTTCCCGGTAATCCGTATTTGAG (site GCTTGCCCTGT)"
assigned_category = "not satisfied"

[[record]]
sequence_entry = "CAAGCAGCATGGACCGGTTTTCCCGGTAATCCGTATTTGCG (site CAAGCAGCTCG)"
assigned_category = "satisfied"

[[record]]
sequence_entry = "GCGAATCCATGGACCGGTTTTCCCGGTAATCCGTATTTGGG (site GCGAATCCTCC)"
assigned_category = "not satisfied"

[[record]]
sequence_entry = "AATGTCGCATGGACCGGTTTTCCCGGTAATCCGTATTTGGT (site AATGTCGCTAC)"
assigned_category = "satisfied"

[[record]]
sequence_entry = "ATAGCATCATGGACCGGTTTTCCCGGTAATCCGTATTTGAC (site CTAGTATCTGT)"
assigned_category = "satisfied"

[[record]]
sequence_entry = "ACTAGAACATGGACCGGTTTTCCCGGTAATCCGTATTTGGG (site ACTAGAACTCA)"
assigned_category = "satisfied"

[[record]]
sequence_entry = "CGTACATCATGGACCGGTTTTCCCGGTAATCCGTATTTGCG (site CGTACATCTCG)"
assigned_category = "satisfied"

[[record]]
sequence_entry = "ACTGGTACATGGACCGGTTTTCCCGGTAATCCGTATTTGAA (site ACTGGTACTTT)"
assigned_category = "satisfied"

[[record]]
sequence_entry = "TCTTGCCCATGGACCGGTTTTCCCGGTAATCCGTATTTGAT (site ACTTGCCCTAT)"
assigned_category = "not satisfied"

[[record]]
sequence_entry = "CCTTGCCCATGGACCGGTTTTCCCGGTAATCCGTATTTGAT (site TCTTGCCCTAT)"
assigned_category = "satisfied"

[[record]]
sequence_entry = "CTGGGAACATGGACCGGTTTTCCCGGTAATCCGTATTTGCA (site CTGGGAACTTG)"
assigned_category = "satisfied"

[[record]]
sequence_entry = "CAATATCCATGGACCGGTTTTCCCGGTAATCCGTATTTGTT (site CAATATCCTAA)"
assigned_category = "satisfied"

[[record]]
sequence_entry = "CCAGGTGCATGGACCGGTTTTCCCGGTAATCCGTATTTGAA (site CCAGGTGCTGT)"
assigned_category = "not satisfied"

